# credit: paper PMC5909127

biological target: BRD3 BD2 WT (Homo sapiens, UniProt Q15059); test: ITC; type: binding; conditions: ITC, 30°C; read-out: Kd BRD3 BD2 WT
Sequence (Q15059 306-416): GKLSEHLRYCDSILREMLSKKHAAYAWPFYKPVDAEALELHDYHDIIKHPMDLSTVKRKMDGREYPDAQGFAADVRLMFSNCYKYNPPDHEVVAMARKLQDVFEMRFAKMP
Readout Label: Kd (nM)
# output: bare number, implied unit nM

Which Kd is reported for this compound? CCNC(=O)[C@H](C)[C@@H]1N=C(c2ccc(Cl)cc2)c2cc(OC)ccc2-n2c(C)nnc21 (relative stereo) 1500

* * *

target: BRD3 BD2 L/V (Homo sapiens, UniProt Q15059, L345V); assay: competitive AlphaLISA; format: binding
Sequence (Q15059 306-416 L345V limits assumed): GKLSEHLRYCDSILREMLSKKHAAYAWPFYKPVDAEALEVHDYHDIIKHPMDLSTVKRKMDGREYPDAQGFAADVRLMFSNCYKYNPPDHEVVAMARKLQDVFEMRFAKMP
Ranges used to classify IC50: low: < 500 nM; moderate: ≥ 500 nM and < 1000 nM; high: ≥ 1000 nM

State the class of the molecule shown: COC(=O)[C@H](C)[C@@H]1N=C(c2ccc(Cl)cc2)c2cc(OC)ccc2-n2c(C)nnc21 (relative stereo) [Compound 3] low

State the class of the molecule shown: CC[C@@H](C(=O)OC)[C@@H]1N=C(c2ccc(Cl)cc2)c2ccc(OC)cc2-n2c(C)nnc21 (racemic) [Compound 8] low

State the class of the molecule shown: CC[C@@H](C(=O)OC(C)(C)C)[C@@H]1N=C(c2ccc(Cl)cc2)c2cc(OC)ccc2-n2c(C)nnc21 [Compound 23] moderate

State the class of the molecule shown: C=CC[C@@H](C(=O)NCC)[C@@H]1N=C(c2ccc(Cl)cc2)c2cc(OC)ccc2-n2c(C)nnc21 (relative stereo) [Compound 18] high

State the class of the molecule shown: C=CC[C@@H](C(=O)OC(C)(C)C)[C@@H]1N=C(c2ccc(Cl)cc2)c2ccc(OC)cc2-n2c(C)nnc21 [Compound 26] high

State the class of the molecule shown: CC[C@@H](C(=O)N(CC)CC)[C@@H]1N=C(c2ccc(Cl)cc2)c2cc(OC)ccc2-n2c(C)nnc21 (relative stereo) [Compound 20] high

State the class of the molecule shown: COC(=O)[C@H](C)[C@@H]1N=C(c2ccc(Cl)cc2)c2ccc(OC)cc2-n2c(C)nnc21 (racemic) [Compound 7] low

State the class of the molecule shown: C=CC[C@@H](C(=O)OC(C)(C)C)[C@@H]1N=C(c2ccc(Cl)cc2)c2cc(OC)ccc2-n2c(C)nnc21 [Compound 24] moderate

State the class of the molecule shown: CCC[C@@H](C(=O)OC)[C@@H]1N=C(c2ccc(Cl)cc2)c2cc(OC)ccc2-n2c(C)nnc21 (relative stereo) [Compound 6] high

State the class of the molecule shown: C=CC[C@@H](C(=O)OC)[C@@H]1N=C(c2ccc(Cl)cc2)c2cc(OC)ccc2-n2c(C)nnc21 (racemic) [Compound 5] low

State the class of the molecule shown: CCNC(=O)[C@H](CC)[C@@H]1N=C(c2ccc(Cl)cc2)c2ccc(OC)cc2-n2c(C)nnc21 (relative stereo) [Compound 22] high

State the class of the molecule shown: CC[C@@H](C(=O)OC(C)(C)C)[C@@H]1N=C(c2ccc(Cl)cc2)c2ccc(OC)cc2-n2c(C)nnc21 [Compound 25] high

State the class of the molecule shown: CC[C@@H](C(=O)OC)[C@@H]1N=C(c2ccc(Cl)cc2)c2cc(OC)ccc2-n2c(C)nnc21 (relative stereo) [Compound 4] low

* * *

biological target: BRD2 BD1 L/V (Homo sapiens, UniProt P25440, L110V); assay: competitive AlphaLISA; assay type: binding
Sequence (P25440 71-176 L110V limits assumed): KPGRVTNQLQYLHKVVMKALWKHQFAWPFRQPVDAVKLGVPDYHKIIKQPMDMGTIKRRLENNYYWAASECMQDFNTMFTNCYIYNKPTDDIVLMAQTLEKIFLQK
# label = Y if IC50 < 2000 nM else N

Strictly below 2000 nM: is that where IC50 of `CC[C@@H](C(=O)OC(C)(C)C)[C@@H]1N=C(c2ccc(Cl)cc2)c2ccc(OC)cc2-n2c(C)nnc21` sits? N

Strictly below 2000 nM: is that where IC50 of COC(=O)[C@H](C)[C@@H]1N=C(c2ccc(Cl)cc2)c2ccc(OC)cc2-n2c(C)nnc21 (racemic) sits? Y

Strictly below 2000 nM: is that where IC50 of CC[C@@H](C(=O)OC)[C@@H]1N=C(c2ccc(Cl)cc2)c2cc(OC)ccc2-n2c(C)nnc21 (relative stereo) sits? Y

Strictly below 2000 nM: is that where IC50 of CC[C@@H](C(=O)OC)[C@@H]1N=C(c2ccc(Cl)cc2)c2ccc(OC)cc2-n2c(C)nnc21 (racemic) sits? Y

Strictly below 2000 nM: is that where IC50 of COC(=O)[C@H](C)[C@@H]1N=C(c2ccc(Cl)cc2)c2cc(OC)ccc2-n2c(C)nnc21 (relative stereo) sits? Y

Strictly below 2000 nM: is that where IC50 of C=CC[C@@H](C(=O)OC)[C@@H]1N=C(c2ccc(Cl)cc2)c2cc(OC)ccc2-n2c(C)nnc21 (racemic) sits? Y

Strictly below 2000 nM: is that where IC50 of COC(=O)CC1N=C(c2ccc(Cl)cc2)c2ccc(OC)cc2-n2c(C)nnc21 (centres unmarked) sits? Y

Strictly below 2000 nM: is that where IC50 of C=CC[C@@H](C(=O)OC)[C@@H]1N=C(c2ccc(Cl)cc2)c2ccc(OC)cc2-n2c(C)nnc21 (relative stereo) sits? N

Strictly below 2000 nM: is that where IC50 of C=CC[C@@H](C(=O)NCC)[C@@H]1N=C(c2ccc(Cl)cc2)c2cc(OC)ccc2-n2c(C)nnc21 (relative stereo) sits? N

Strictly below 2000 nM: is that where IC50 of CCC[C@@H](C(=O)OC)[C@@H]1N=C(c2ccc(Cl)cc2)c2cc(OC)ccc2-n2c(C)nnc21 (relative stereo) sits? N

Strictly below 2000 nM: is that where IC50 of `C=CC[C@@H](C(=O)OC(C)(C)C)[C@@H]1N=C(c2ccc(Cl)cc2)c2cc(OC)ccc2-n2c(C)nnc21` sits? Y

Strictly below 2000 nM: is that where IC50 of `CC[C@@H](C(=O)OC(C)(C)C)[C@@H]1N=C(c2ccc(Cl)cc2)c2cc(OC)ccc2-n2c(C)nnc21` sits? Y

* * *

system: L/V BET bromodomains (BD1 and BD2 of BRD2, BRD3 and BRD4); assay: competitive AlphaLISA (Bio-JQ1 displacement); type: binding, human; conditions: L/V minus WT
Readout Label: AlphaLISA pIC50 ± SD Δ
The response must contain the number and no unit.

Which AlphaLISA pIC50 ± SD Δ is reported for this molecule? CCNC(=O)[C@H](CC)[C@@H]1N=C(c2ccc(Cl)cc2)c2cc(OC)ccc2-n2c(C)nnc21 (relative stereo) 1.5

Which AlphaLISA pIC50 ± SD Δ is reported for this molecule? `C=CC[C@@H](C(=O)OC(C)(C)C)[C@@H]1N=C(c2ccc(Cl)cc2)c2cc(OC)ccc2-n2c(C)nnc21` 0.9

* * *

target: BRDT BD2 L/V (Homo sapiens, UniProt Q58F21, L306V); test: competitive AlphaLISA; assay type: binding
pIC50: −log10 of the molar value.
Tag: Y if measured pIC50 is not below 6, N if it is.

Check the entry C=CC[C@@H](C(=O)NCC)[C@@H]1N=C(c2ccc(Cl)cc2)c2cc(OC)ccc2-n2c(C)nnc21 (relative stereo) [Compound 18] : does pIC50 equal or exceed 6? N

Check the entry CCN(CC)C(=O)[C@H](C)[C@@H]1N=C(c2ccc(Cl)cc2)c2cc(OC)ccc2-n2c(C)nnc21 (relative stereo) [Compound 19] : does pIC50 equal or exceed 6? N

Check the entry C=CC[C@@H](C(=O)OC(C)(C)C)[C@@H]1N=C(c2ccc(Cl)cc2)c2ccc(OC)cc2-n2c(C)nnc21 [Compound 26] : does pIC50 equal or exceed 6? N

Check the entry COC(=O)[C@H](C)[C@@H]1N=C(c2ccc(Cl)cc2)c2cc(OC)ccc2-n2c(C)nnc21 (relative stereo) [Compound 3] : does pIC50 equal or exceed 6? Y

Check the entry CC[C@@H](C(=O)OC)[C@@H]1N=C(c2ccc(Cl)cc2)c2ccc(OC)cc2-n2c(C)nnc21 (racemic) [Compound 8] : does pIC50 equal or exceed 6? Y

Check the entry CCNC(=O)[C@H](CC)[C@@H]1N=C(c2ccc(Cl)cc2)c2ccc(OC)cc2-n2c(C)nnc21 (relative stereo) [Compound 22] : does pIC50 equal or exceed 6? N

* * *

molecular target: BRD2: WT/LV (Homo sapiens, UniProt P25440, L383V); assay: ITC, BRD2 tandem construct
Sequence (P25440 73-455 L383V): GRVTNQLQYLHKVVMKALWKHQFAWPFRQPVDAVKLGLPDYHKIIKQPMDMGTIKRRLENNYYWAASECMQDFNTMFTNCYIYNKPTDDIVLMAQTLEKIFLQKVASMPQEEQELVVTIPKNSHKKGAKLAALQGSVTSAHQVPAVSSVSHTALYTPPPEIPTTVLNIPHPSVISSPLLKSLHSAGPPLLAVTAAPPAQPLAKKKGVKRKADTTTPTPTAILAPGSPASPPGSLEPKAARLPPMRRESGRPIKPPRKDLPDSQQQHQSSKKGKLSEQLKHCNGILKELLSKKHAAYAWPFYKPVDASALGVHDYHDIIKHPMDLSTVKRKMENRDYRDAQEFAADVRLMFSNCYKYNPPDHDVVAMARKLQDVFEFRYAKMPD
Readout Label: Kd (nM)
# output: bare number, implied unit nM

Which Kd is reported for this compound? CC[C@@H](C(=O)OC)[C@@H]1N=C(c2ccc(Cl)cc2)c2cc(OC)ccc2-n2c(C)nnc21 (relative stereo) [Compound 4] 620

* * *

Could you please report measured CL int for the items listed next?
test: Intrinsic Clearance; settings: mouse liver microsomes
# output: bare number, implied unit ml min^–1 g^–1

Which CL int is reported for this molecule? C=CC[C@@H](C(=O)OC(C)(C)C)[C@@H]1N=C(c2ccc(Cl)cc2)c2ccc(OC)cc2-n2c(C)nnc21 [Compound 26] 39.4

Which CL int is reported for this molecule? CCNC(=O)[C@H](CC)[C@@H]1N=C(c2ccc(Cl)cc2)c2ccc(OC)cc2-n2c(C)nnc21 (relative stereo) [Compound 22] 2.1

Which CL int is reported for this molecule? C=CC[C@@H](C(=O)OC(C)(C)C)[C@@H]1N=C(c2ccc(Cl)cc2)c2cc(OC)ccc2-n2c(C)nnc21 [Compound 24] 39.1
